Tested on: MDA-MB-468 breast
assay: NCI-60 one-dose screen, 48 h
condition set: 10 µM unless noted
Compounds without any hit were thinned out: in the full panel of roughly 83,000, 20% have a hit. Calls of active or inactive are those of the source. Rule for the calls: active = growth percent below 10; inactive = the rest.
Select the matching outcome among T = active, F = inactive

**Query** Status in this test for COc1cc2c(cc1OC)C1(C)N(CC2)C(=O)OC1(C)C (stereo not given) ?
**Result** F

**Query** Same read-out for COc1ccc(-n2cnc3cc(C(=O)N4CCCCC4)ccc32)cc1 ?
**Result** F

**Query** Same read-out for COc1ccc(/C(C)=C(\c2ccc(Cl)cc2)c2ccc(OCCN3CCCCCC3)cc2)cc1F ?
**Result** F

**Query** Same read-out for CC(=O)c1nn(-c2ccccc2)/c(=N/N=Cc2cn(-c3ccccc3)nc2-c2cc3ccccc3oc2=O)s1 ?
**Result** F

**Query** Same read-out for C=C(CNCCc1ccc(O)cc1)[C@@H]1CC[C@]2(CO)CC[C@]3(C)[C@H](CC[C@@H]4[C@@]5(C)CCC(N)C(C)(C)[C@@H]5CC[C@]43C)[C@@H]12 (stereo not given in full) ?
**Result** T

**Query** Same read-out for Oc1ccc(CCC2CCNc3ccccc32)cc1 (stereo not given) ?
**Result** F

**Query** Same read-out for CCOC(=O)c1sc(NC(=O)COc2ccc(/C=C3\Cc4ccc(Cl)cc4C3=O)cc2)nc1C ?
**Result** F

**Query** Same read-out for c1ccc(Nc2cc(-c3cccnc3)[nH]n2)cc1 ?
**Result** F

**Query** Same read-out for COCCOC(=O)COc1ccc(OC)cc1 ?
**Result** F

**Query** Same read-out for Clc1cc(Cl)cc(Nc2ccc3cc(OCCCN4CCOCC4)ccc3n2)c1 ?
**Result** F

====

I'd be grateful if you could share measured growth for these entries.
Tested on: SK-MEL-28 melanoma
assay: NCI-60 one-dose screen, 48 h (100 = growth as untreated, 0 = no growth, -100 = all killed)
condition set: 10 µM
About 83,000 compounds went through this panel and 20% of them were active in at least one assay; those are over-represented in the sample as a whole. Calls of active or inactive are those of the source. How the source made its calls: active means growth percent below 10; inactive means the rest.

For orientation, consider the following solved cases.
COc1cc2oc(-c3cccc(C(=O)Nc4ccc(Cl)cc4)c3)cc(=O)c2c(OCCNC(=O)[C@@H](N)CO)c1OC :: -74.9% (active)
CC(C)(C)c1cc(/C=C2\S/C(=N/c3ncn[nH]3)NC2=O)cc(C(C)(C)C)c1O :: 21.6% (inactive)
Cn1cc(/C=C(/SS/C(=C/c2cn(C)c3cccc(C(=O)O)c23)C(=O)O)C(=O)O)c2c(C(=O)O)cccc21 :: 98.3% (inactive)
COc1ccc(Cc2nn(CC(=O)N/N=C/c3ccc([N+](=O)[O-])cc3)c(=O)c3c(C)noc23)cc1 :: 80.3% (inactive)

# ---- query molecule ----
**Query** # input molecule: Cc1ccc2c(c1)C(=O)/C(=C/c1c[nH]c3ccccc13)S2 ; wanted: its growth
**Result** 65.2% (inactive)

====

Tested on: MDA-MB-468 breast
assay: NCI-60 one-dose screen, 48 h
condition set: 10 µM unless noted
This is part of a sample that, as a whole, favours compounds with a hit. Of some 83,000 tested, about 20% had one in any assay. Calls of active or inactive are those of the source. Rule for the calls: active = growth percent below 10; inactive = the rest.
Select the matching outcome among yes for active, no for inactive

C/C(=C(/c1ccccc1)c1ccc(OCC(O)CN2CCOCC2)cc1)c1ccccc1 (centres undefined) :: no
CC[C@H](Nc1cc(C)nc(N)n1)c1nc2cccc(NCc3ccc(C(=O)NO)cc3)c2c(=O)n1-c1ccccc1 :: yes
C=C(C)[C@@H]1CC[C@]2(C(=O)NCCCCCCN(CCCN)CCCN)CC[C@]3(C)[C@H](CC[C@@H]4[C@@]5(C)CC[C@H](OCCCN)C(C)(C)[C@@H]5CC[C@]43C)[C@@H]12 :: no

**Query** Status in this test for CCN(CC)S(=O)(=O)c1ccc(S(=O)(=O)N2CCC[C@@H](C(=O)N3CCN(C(=O)OC(C)(C)C)CC3)C2)cc1 ?
**Result** no

**Query** Same read-out for CCCCCCCCCCCCC1CCCC(C)C1 (centres undefined) ?
**Result** no

**Query** Same read-out for O=C(Cc1cccc2ccccc12)N/N=C/c1ccc2c(c1)CCC2 ?
**Result** no
